In this section we review reported pKi values for a set of compounds.
Target: E129V mutant human TP receptor (Homo sapiens, UniProt P21731, E129V)
Sequence (P21731 1-343 E129V): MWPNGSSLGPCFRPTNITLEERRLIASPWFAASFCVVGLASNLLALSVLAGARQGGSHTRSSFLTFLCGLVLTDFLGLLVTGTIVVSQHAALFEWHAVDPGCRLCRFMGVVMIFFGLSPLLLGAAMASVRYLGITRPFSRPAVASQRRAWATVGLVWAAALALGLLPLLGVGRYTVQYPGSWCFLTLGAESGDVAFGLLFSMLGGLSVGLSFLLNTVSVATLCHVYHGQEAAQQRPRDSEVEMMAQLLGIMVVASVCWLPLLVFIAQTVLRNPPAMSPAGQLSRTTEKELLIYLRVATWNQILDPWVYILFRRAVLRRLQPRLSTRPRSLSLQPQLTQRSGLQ
Experiment: [3H]SQ29,548 radioligand binding (mixed-type and heterologous competition), E129V mutant
Conditions: HEK293 cells, E129V, competition vs 1 nM [3H]SQ29,548, 25°C 30 min; value ±%CV
For clarity, pKi is expressed as the negative log10 of concentration in mol/L.

Please review the entries below; each comes with its answer.
CCCCC[C@H](O)/C=C/[C@H]1[C@H](O)CC(=O)[C@H]1C/C=C\CCCC(=O)O [8-isoPGE2, 8-iso Prostaglandin E2] | 6.26
CCCCC[C@H](O)/C=C/[C@@H]1[C@@H](C/C=C\CCCC(=O)O)[C@H]2CO[C@@H]1C2 (relative stereo) | 7.79

Qu. Name the value of pKi reported for CCCCC[C@H](O)/C=C/[C@@H]1[C@H](C/C=C\CCCC(=O)O)[C@@H](O)C[C@H]1O when tested on E129V mutant human TP receptor (Homo sapiens, UniProt P21731, E129V).
Ans. 5.54

Qu. Name the value of pKi reported for CCCCC[C@H](O)/C=C/C1CC2CC(C1C/C=C\CCCC(=O)O)C2(C)C (some centres unmarked) when tested on E129V mutant human TP receptor (Homo sapiens, UniProt P21731, E129V).
Ans. 5.32

Qu. Name the value of pKi reported for O=C(O)CCCC=CCC1C2CCC(O2)C1C=CC(O)COc1ccc(I)cc1 (centres unmarked) when tested on E129V mutant human TP receptor (Homo sapiens, UniProt P21731, E129V).
Ans. 8.41

====

Target: UniProt P21731
Sequence (P21731 1-343): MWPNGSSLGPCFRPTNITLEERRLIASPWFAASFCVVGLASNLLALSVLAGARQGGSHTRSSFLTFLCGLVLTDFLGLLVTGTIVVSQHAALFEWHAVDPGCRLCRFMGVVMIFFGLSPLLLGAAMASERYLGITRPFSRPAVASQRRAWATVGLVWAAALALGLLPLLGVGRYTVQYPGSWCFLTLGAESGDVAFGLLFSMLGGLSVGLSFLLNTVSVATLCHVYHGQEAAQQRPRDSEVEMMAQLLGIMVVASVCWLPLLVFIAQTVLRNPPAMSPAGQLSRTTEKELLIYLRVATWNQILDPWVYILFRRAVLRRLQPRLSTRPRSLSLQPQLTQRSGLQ
In this section we review reported Ki values for a set of molecules.
Express it in nM; write the number only.

O=C(O)CCCC=CCC1C2CCC(O2)C1C=CC(O)COc1ccc(I)cc1 (centres unmarked) | 24.3
CCCCC[C@H](O)/C=C/[C@@H]1[C@@H](C/C=C\CCCC(=O)O)[C@H]2CO[C@@H]1C2 (relative stereo) | 170
CCCCC[C@H](O)/C=C/C1CC2CC(C1C/C=C\CCCC(=O)O)C2(C)C (some centres unmarked) | 12100
CCCCC[C@H](O)/C=C/[C@@H]1[C@H](C/C=C\CCCC(=O)O)[C@@H](O)C[C@H]1O | 12900

With those in mind, consider the next molecule.
Qu. Return the recorded Ki value; entry: CCCCC[C@H](O)/C=C/[C@H]1[C@H](O)CC(=O)[C@H]1C/C=C\CCCC(=O)O [8-isoPGE2, 8-iso Prostaglandin E2]
Ans. 2920

====

In this section we review reported EC50 values for a set of compounds.
molecular target: E129V mutant human TP receptor (Homo sapiens, UniProt P21731, E129V); construct: expressed in transfected cells; host or cells: HEK293; assay: Total inositol phosphate (IP) accumulation, E129V mutant; format: cell-based; conditions: HEK293 cells, E129V, 30 min stimulation; value ±%CV
Express it in nM; write the number only.

Please review the entries below; each comes with its answer.
CCCCC[C@H](O)/C=C/[C@@H]1[C@@H](C/C=C\CCCC(=O)O)[C@H]2CO[C@@H]1C2 (relative stereo) [U46619] | 4.47
CCCCC[C@H](O)/C=C/[C@@H]1[C@H](C/C=C\CCCC(=O)O)[C@@H](O)C[C@H]1O [8-isoPGF2α, 8-iso Prostaglandin F2α] | 493
O=C(O)CCCC=CCC1C2CCC(O2)C1C=CC(O)COc1ccc(I)cc1 (stereo not shown) [I-BOP] | 2.99

With those in mind, consider the next compound.
Qu. Return the recorded EC50 value; entry: CCCCC[C@H](O)/C=C/[C@H]1[C@H](O)CC(=O)[C@H]1C/C=C\CCCC(=O)O [8-isoPGE2, 8-iso Prostaglandin E2]
Ans. 95.9

====

target: WT human TP receptor (Homo sapiens, UniProt P21731); construct: expressed in transfected cells; host or cells: HEK293; test: Total inositol phosphate (IP) accumulation, WT receptor; type: cell-based; settings: HEK293 cells, 30 min stimulation, no Gαq overexpression, value ±%CV
property-measured: Emax, total IP (dpm/well)
Express it in dpm/well; write the number only.

CCCCC[C@H](O)/C=C/C1CC2CC(C1C/C=C\CCCC(=O)O)C2(C)C (some centres unmarked) | 5856

Qu. Return the recorded Emax, total IP value; entry: CCCCC[C@H](O)/C=C/[C@@H]1[C@H](C/C=C\CCCC(=O)O)[C@@H](O)C[C@H]1O
Ans. 6744

Qu. Return the recorded Emax, total IP value; entry: CCCCC[C@H](O)/C=C/[C@@H]1[C@@H](C/C=C\CCCC(=O)O)[C@H]2CO[C@@H]1C2 (relative stereo)
Ans. 12374

Qu. Return the recorded Emax, total IP value; entry: O=C(O)CCCC=CCC1C2CCC(O2)C1C=CC(O)COc1ccc(I)cc1 (centres unmarked)
Ans. 13099

Qu. Return the recorded Emax, total IP value; entry: CCCCC[C@H](O)/C=C/[C@H]1[C@H](O)CC(=O)[C@H]1C/C=C\CCCC(=O)O [8-isoPGE2, 8-iso Prostaglandin E2]
Ans. 5087

====

target: E129V mutant human TP receptor (Homo sapiens, UniProt P21731, E129V); construct: expressed in transfected cells; host or cells: HEK293; test: Total inositol phosphate (IP) accumulation, E129V mutant; assay type: cell-based; conditions: HEK293 cells, E129V, 30 min stimulation; value ±%CV
In this section we review reported Emax, total IP values for a set of molecules.
Express it in dpm/wel; write the number only.

Qu. Name the value of Emax, total IP reported for CCCCC[C@H](O)/C=C/[C@H]1[C@H](O)CC(=O)[C@H]1C/C=C\CCCC(=O)O [8-isoPGE2, 8-iso Prostaglandin E2] when tested on E129V mutant human TP receptor (Homo sapiens, UniProt P21731, E129V).
Ans. 12201

Qu. Name the value of Emax, total IP reported for CCCCC[C@H](O)/C=C/[C@@H]1[C@H](C/C=C\CCCC(=O)O)[C@@H](O)C[C@H]1O [8-isoPGF2α, 8-iso Prostaglandin F2α] when tested on E129V mutant human TP receptor (Homo sapiens, UniProt P21731, E129V).
Ans. 15287

Qu. Name the value of Emax, total IP reported for CCCCC[C@H](O)/C=C/[C@@H]1[C@@H](C/C=C\CCCC(=O)O)[C@H]2CO[C@@H]1C2 (relative stereo) [U46619] when tested on E129V mutant human TP receptor (Homo sapiens, UniProt P21731, E129V).
Ans. 18115

Qu. Name the value of Emax, total IP reported for O=C(O)CCCC=CCC1C2CCC(O2)C1C=CC(O)COc1ccc(I)cc1 (stereo not shown) [I-BOP] when tested on E129V mutant human TP receptor (Homo sapiens, UniProt P21731, E129V).
Ans. 17156

====

molecular target: WT human TP receptor (Homo sapiens); construct: expressed in transfected cells; host or cells: HEK293; test: BRET2 measurement of Gq protein activation, WT receptor; type: cell-based; settings: HEK293 cells, value ±%CV
In this section we review reported Emax, agonist-induced BRET values for a set of molecules.
Write no unit; give the number alone.

CCCCC[C@H](O)/C=C/[C@H]1[C@H](O)CC(=O)[C@H]1C/C=C\CCCC(=O)O [8-isoPGE2, 8-iso Prostaglandin E2] | −0.02
CCCCC[C@H](O)/C=C/[C@@H]1[C@H](C/C=C\CCCC(=O)O)[C@@H](O)C[C@H]1O [8-isoPGF2α, 8-iso Prostaglandin F2α] | −0.05
O=C(O)CCCC=CCC1C2CCC(O2)C1C=CC(O)COc1ccc(I)cc1 (stereo not shown) [I-BOP] | −0.07

Qu. Return the recorded Emax, agonist-induced BRET value; entry: CCCCC[C@H](O)/C=C/[C@@H]1[C@@H](C/C=C\CCCC(=O)O)[C@H]2CO[C@@H]1C2 (relative stereo) [U46619]
Ans. −0.07

Origin of values: paper PMC3610872
